The measured values listed here are drawn from patent US11504441B2.

Assay: in vivo
Parameters: species or system mice
Settings: male, NODSCID 1L2RγKO, mouse, iv, total radioactivity, Bone uptake
Threshold check on tissue uptake at 120 h: strictly below 0.06 %ID/g is satisfied; on or above 0.06 %ID/g is not satisfied.

Input O=C(O)CCC[C@H](NC(=O)N[C@@H](CCCCNC(=O)[C@H](Cc1c2ccccc2cc2ccccc12)NC(=O)[C@H]1CC[C@H](CNC(=O)CN2CCN(CC(=O)O)CCN(CC(=O)O)CCN(CC(=O)O)CC2)CC1)C(=O)O)C(=O)O [177Lu-HTK03149, metal not drawn] ; condition: tissue uptake at 120 h strictly below 0.06 %ID/g. Does it hold?
satisfied

Lab note: tissue uptake at 120 h threshold 0.06 %ID/g. Does this compound come in strictly under it? COc1ccc(CCCC(=O)NCC(=O)N[C@@H](CCCCNC(=O)CN2CCN(CC(=O)O)CCN(CC(=O)O)CCN(CC(=O)O)CC2)C(=O)NC[C@H]2CC[C@H](C(=O)N[C@@H](Cc3c4ccccc4cc4ccccc34)C(=O)NCCCC[C@H](NC(=O)N[C@@H](COCC(=O)O)C(=O)O)C(=O)O)CC2)cc1 [177Lu-HTK04028, metal not drawn]
satisfied

Is the reported tissue uptake at 120 h for COc1ccc(CCCC(=O)NCC(=O)N[C@@H](CCCCNC(=O)CN2CCN(CC(=O)O)CCN(CC(=O)O)CCN(CC(=O)O)CC2)C(=O)NC[C@H]2CC[C@H](C(=O)N[C@@H](Cc3c4ccccc4cc4ccccc34)C(=O)NCCCC[C@H](NC(=O)N[C@@H](CSCC(=O)O)C(=O)O)C(=O)O)CC2)cc1 [177Lu-HTK04048, metal not drawn] strictly below 0.06 %ID/g?
not satisfied

Please state whether tissue uptake at 120 h is below 0.06 %ID/g for COc1ccc(CCCC(=O)NCC(=O)N[C@@H](CCCCNC(=O)CN2CCN(CC(=O)O)CCN(CC(=O)O)CCN(CC(=O)O)CC2)C(=O)NC[C@H]2CC[C@H](C(=O)N[C@@H](Cc3c4ccccc4cc4ccccc34)C(=O)NCCCC[C@H](NC(=O)N[C@@H](CCCC(=O)O)C(=O)O)C(=O)O)CC2)cc1 [177Lu-HTK03170, metal not drawn]
satisfied
